Data provenance is the supplement of paper PMC3545927.

# target.entity: furin, P09958;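 further: purified furin at 1:10 enzyme:substrate in 50 mM HEPES pH 7.5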
# Sequence (P09958 whole entry): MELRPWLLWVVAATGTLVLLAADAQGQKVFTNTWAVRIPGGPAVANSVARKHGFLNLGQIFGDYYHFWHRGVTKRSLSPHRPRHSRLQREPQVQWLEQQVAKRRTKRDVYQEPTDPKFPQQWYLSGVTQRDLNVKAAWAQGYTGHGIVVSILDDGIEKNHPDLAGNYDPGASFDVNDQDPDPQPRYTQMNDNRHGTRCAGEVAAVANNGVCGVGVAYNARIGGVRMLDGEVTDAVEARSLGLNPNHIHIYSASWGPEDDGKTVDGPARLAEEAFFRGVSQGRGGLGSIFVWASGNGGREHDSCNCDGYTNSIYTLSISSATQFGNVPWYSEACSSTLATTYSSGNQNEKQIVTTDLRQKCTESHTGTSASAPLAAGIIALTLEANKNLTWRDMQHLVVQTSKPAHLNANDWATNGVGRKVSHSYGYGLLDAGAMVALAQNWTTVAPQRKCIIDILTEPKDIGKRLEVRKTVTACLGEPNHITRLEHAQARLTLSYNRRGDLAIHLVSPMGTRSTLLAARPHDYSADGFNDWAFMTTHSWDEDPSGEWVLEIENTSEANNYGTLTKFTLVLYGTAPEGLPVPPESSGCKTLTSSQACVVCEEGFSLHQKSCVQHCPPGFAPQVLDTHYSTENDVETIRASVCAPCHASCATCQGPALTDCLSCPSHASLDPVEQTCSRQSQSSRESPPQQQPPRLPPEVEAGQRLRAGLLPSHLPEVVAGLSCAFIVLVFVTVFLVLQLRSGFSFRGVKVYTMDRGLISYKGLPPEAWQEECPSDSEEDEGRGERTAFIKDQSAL
# method.notes: furin cleavage Z-score vs untreated control; higher = more cleavage, active = 3.5 or more, inactive = 1 or less, 8 variable residues between constant flanks
# test.parameters: 30 min
The other results are listed elsewhere or left out. The true hit rate is not given.
Give your call using only these classes: active, inactive

- CARARRDDPHAGNASASA [FS-2888]: active

Could you now look at the following sequence, please?
Would you mind telling me which call this test gave CACRRRRRRKAGNASASA [FS-583] ?
active
